Target: recombinant human FAMIN (Homo sapiens)
Construct: twin Strep-tag (followed by short linker and TEV cleavage site) (N, cleaved yes); made in house; host or cells: HEK293T
Sequence (Q8IV20 1-430): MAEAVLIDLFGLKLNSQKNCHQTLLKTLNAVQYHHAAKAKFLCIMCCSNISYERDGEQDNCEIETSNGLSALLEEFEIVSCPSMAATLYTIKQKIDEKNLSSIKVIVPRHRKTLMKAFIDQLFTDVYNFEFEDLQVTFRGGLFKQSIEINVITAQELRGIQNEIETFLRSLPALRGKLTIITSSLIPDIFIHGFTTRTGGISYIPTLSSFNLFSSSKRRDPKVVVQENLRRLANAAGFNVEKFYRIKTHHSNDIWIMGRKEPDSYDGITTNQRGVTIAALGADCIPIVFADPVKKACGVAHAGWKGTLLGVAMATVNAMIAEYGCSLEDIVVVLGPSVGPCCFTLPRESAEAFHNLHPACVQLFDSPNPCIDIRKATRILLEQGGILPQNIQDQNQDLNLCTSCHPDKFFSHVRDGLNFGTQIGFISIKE
Test: specificity of FAMIN activity towards purine and pyrimidine nucleosides (substrate consumption, LC-MS)
Format: biochemical
Conditions: pure substrate with 10 μg recombinant FAMIN in 100 μl PBS, pH 7.4, 1 h at 37° C. (FIG. 2A, 2N, 2R, 2S)
readoutType: metabolised by FAMIN as pure substrate

>  <smilesString>
OC[C@H]1O[C@@H](n2cnc3c(O)ncnc32)[C@H](O)[C@@H]1O

>  <valueMeasured>
metabolised

$$$$
>  <smilesString>
Nc1nc2c(ncn2[C@@H]2O[C@H](CO)[C@@H](O)[C@H]2O)c(=O)[nH]1

>  <valueMeasured>
metabolised

$$$$
>  <smilesString>
Nc1ncnc2c1ncn2[C@H]1C[C@H](O)[C@@H](CO)O1

>  <valueMeasured>
metabolised

$$$$
